assayInfo: protein stability index of a GFP-peptide fusion (yeast GPS) (PSI 1-4); higher = more stable; sorted into four equal gates, so the index is relative within each strain
conditionsUsed: doa10∆
# cutoff 3 applies to protein stability index; >= gives yes (1), < gives no (0)

| sequenceData | categoryLabel |
| --- | --- |
| EQKLVDLLKFENISLAE [BRR2] | no (0) |
| LLLKKLDNFQKSVEKTM [SMC3] | no (0) |
| SLGIRPCLRKYEEFRDV [RRP43] | yes (1) |
| FDIIEESFKGLQPFWFR [ECM29] | no (0) |
| QQSNKLHCCIQLLMGDI [RPN3] | no (0) |
| HIEGVVILKKNPDYREE [RPN1] | no (0) |
| TLENTLKAAFVAIGNTY [RPS2] | no (0) |
| NPPYSQCIVYPNCLFIL [SOH1] | no (0) |
| AAGIWTCSCCKKTVAGG [RPL43A] | no (0) |
| TKMFEDRREKAERTMSK [SMC2] | yes (1) |
| PSTDKNEKKTETNAKPF [YLR335W/NUP2] | yes (1) |
| AKNIISNVLDGNKNQFE [LRP1] | no (0) |
| IERDSLVDDENEPSQSL [BRN1] | yes (1) |

* * *

assayInfo: protein stability index of a GFP-peptide fusion (yeast GPS) (PSI 1-4); higher = more stable; sorted into four equal gates, so the index is relative within each strain
conditionsUsed: pdr5∆
quantity: protein stability index

| sequenceData | assayResult |
| --- | --- |
| NQTNINSLAVRGKDCTV [SCL1] | 3.26 |
| DFDNIEFKKIPRVKGFK [SEC65] | 3.11 |
| AFFHLFASLRVLPDADV [YJL039C/NUP192] | 1.24 |
| DPLRIAMKELAEKKIPL [RPO26] | 3.26 |
| EIIFLGAQIVSKQIFTH [ARP9] | 1.33 |
| KYHYKEEWLNTKDPDEQ [CSN9] | 3.05 |
| QHYKNNSISSQPASYHS [SSN2] | 3.03 |
| CRNINRKHRNAQFAGRA [DIS3] | 2.78 |
| EHKSQVVLYNYYLGQYY [CSN12] | 1.81 |
| ENIENEEYVINLLKVSV [ECM29] | 3.23 |
| LEDEKMKFQESLKKVDE [SMC4] | 2.08 |
| IPRHLQLAIRNDDELNK [HTA1] | 3.23 |
| GRSWDGKEHIVAALVSL [ECM29] | 2.1 |
| RVGVKLKFNSTEYRGTL [SMX3] | 3.17 |
| PYFDYIFNDILAHVDQI [YJL039C/NUP192] | 1.89 |
| THPHAADGSSYMEQGNN [SKI6] | 3.2 |
| LDIPNVSLVVNFQISKK [PRP28] | 2.51 |
| EMDSVSKSMKFSRRFDC [CSN9] | 2.6 |
| PTIEYVQCPTVIKLAKY [ARP9] | 1.87 |
| ESLTNSNMFDNSADVDM [YGL100W/SEH1] | 3.57 |
| KDLDGWQVIITDDQGRV [SIR3] | 3.03 |
| IHLQRFDEGTTLLSPKD [RPO21] | 2.57 |
| EKGNAKMIDFATLSKLK [SIR3] | 3.08 |
| INSAPDFTQEDELRKQE [ISW2] | 3.52 |
| SAQQNLASSFVNGFLNL [RPN1] | 2.54 |
| QQMHEVRKELRGRAVVL [RPP0] | 3.05 |
| LPKIIQLQGPQWMNEMV [SOH1] | 3.29 |
| RKRKCGHTNQLRPKKKL [RPL40A] | 2.95 |
| ARLDGHDFLFNTIIRDG [RPN14] | 2.95 |
| KAELEKQKSWVPSYIHV [YIL149C/MLP2] | 2.33 |

* * *

assayInfo: protein stability index of a GFP-peptide fusion (yeast GPS) (PSI 1-4); higher = more stable; sorted into four equal gates, so the index is relative within each strain
conditionsUsed: pdr5∆
protein stability index reference

| sequenceData | protein stability index |
| --- | --- |
| VTKQSELNSSEDILEDM [SMC1] | 3.25 |
| ILGQTMSIGTGSFKVVK [RPO31] | 2.47 |
| ILSEILCQINKCSTRGL [YML103C/NUP188] | 1.55 |
| KRKEELVSTLTTGISST [SMC2] | 2.07 |
| KAKVDDLVLGKPLADLR [YLR335W/NUP2] | 3.56 |
| ECPVGEFLINEGTPINN [RPN14] | 2.39 |
| QNRPYNHPELQGITRNV [RPC17] | 2.38 |
| HRTIVIRRAYLHYIPKY [RPS11A] | 1.55 |
| SSLLYTYDENDDFFKEL [ESC2] | 2.8 |
| KTGITKKDEDEEADEDM [PRE9] | 3.7 |
| LGKKGVPYVVTHDGRTI [RPS4A] | 2.52 |
| NRTKSTTIKNIDILNRT [SMC4] | 2.55 |
| ALVYSYIEASGREGIWS [RPC34] | 2.87 |
| LIEKVDDTAANNGDKDH [YIL149C/MLP2] | 3.25 |

* * *

assayInfo: protein stability index of a GFP-peptide fusion (yeast GPS) (PSI 1-4); higher = more stable; sorted into four equal gates, so the index is relative within each strain
conditionsUsed: ubr1∆
protein stability index reference

| sequenceData | protein stability index |
| --- | --- |
| IVNNDLPTTVVSNPGDN [MED2] | 3.02 |
| MKVEIDSFSGAKIYPGR [RPL24A] | 3.22 |
| LGYPPISLVDDIINAVN [MTW1] | 1.94 |
| NTQLHGPSATDPETTAT [RGR1] | 2.81 |
| AAGIWTCSCCKKTVAGG [RPL43A] | 2.99 |
| SDDKTRQLSPHTLMSFA [PRE1] | 2.18 |
| KNLSLLAEEVVDNIVNK [SRP68] | 3.01 |
| WNLNQFQIEADFIGHNS [ASC1] | 2.52 |
| RIPFSERKLKFSNRFLP [FAS1] | 1.31 |
| RLNTVTRVHQLMLEDAV [MCD1] | 2.32 |
| NLSAFKIVYIAPLKALV [BRR2] | 1.56 |
| NKVGSTGSLMGGNSTQN [YGR119C/NUP57] | 3.17 |
| YSVYLIHEIRLNTLNNV [SIR3] | 2.34 |
| ESNIKMTLEDNNVTSNP [SSN2] | 2.95 |
| TLENTLKAAFVAIGNTY [RPS2] | 1.94 |
| LCEEYLVNNGQSDLEHD [RPN7] | 2.48 |
| NGDNLYGNDEEVLFYED [RPN4] | 2.95 |
| IIANINSFTKGNVFSPI [SNU114] | 2.21 |
| HIMEPCIECQPKAMTDT [HRT1] | 3.29 |
| AAREKKIRELEAELSST [YIL149C/MLP2] | 2.89 |
| EEEATMTTSAVSPTVGK [YIL149C/MLP2] | 3.2 |
| VAAFVNNYPNVELTYSL [BRR2] | 2.9 |
| KTTRLLLIIRSLKNTDA [YJL039C/NUP192] | 1.11 |
| LNSNIRAGVTIPSIPNP [SNF5] | 2.72 |
| PVKLDENSANSTVASAL [SIR4] | 2.9 |
| DVTPISMFGSDQKTGRA [RPN4] | 2.95 |
| MKYLAAYLLLVQGGNAA [RPP2B] | 2 |
| KTYEPVLNEDDLAFGGE [RPN5] | 3.51 |
| AKSNEDKQDGTAKPAFS [YJL041W/NSP1] | 2.96 |
| VDSWDREFLKVDQEMLY [SKP1] | 3.26 |

* * *

protein stability index reference
assayInfo: protein stability index of a GFP-peptide fusion (yeast GPS) (PSI 1-4); higher = more stable; sorted into four equal gates, so the index is relative within each strain
conditionsUsed: san1∆

| sequenceData | protein stability index |
| --- | --- |
| QYYLSVLNQQLPIESQF [BRR2] | 2.65 |
| KDGLKLVGSWKKDRATG [RPO21] | 3.33 |
| DEDIITIFKYLTDKDAF [CDC53] | 3.21 |
| NSNSNSGSLFGSNNAQT [YGL172W/NUP49] | 2.9 |
| SLTRDFEQCCKEKKELQ [YIL149C/MLP2] | 3 |
| DKNELQQMIITRLKSLL [SIR3] | 2.12 |
| QLSNWQKIRNSEGISEA [ITC1] | 2.97 |
| ASLKKMEETEQKKIQIN [SMC3] | 3.1 |
| TESNELIQKLQNSANNN [IRR1] | 3.24 |
| VQGSTLAQLTSKLIPEV [RPS1A] | 3.01 |
| DESSGTSRIDEEKPGLI [SMC4] | 2.94 |
| LKAQITSLKCLVNRKPI [SNF2] | 1.6 |
| ASRSQLEKGEIELSDGS [YJL039C/NUP192] | 2.8 |
| KNLSLLAEEVVDNIVNK [SRP68] | 3.16 |
| ERQQDELENFLDNFETK [YJL041W/NSP1] | 3.48 |
| HGTYFLDNMTYSSVAGT [RRP4] | 2.45 |
| QFSQLNDPNAAVNMTQN [MED6] | 2.86 |
| LNEIKEHKIVVLGNSRG [RPN14] | 3.18 |
| AVEKTLALGCHFQDQKN [POP7] | 2.87 |
| LEQIQVQLKDANSQIQA [YIL149C/MLP2] | 2.45 |
| DKDSEELDSKTRKILEI [MED4] | 3.11 |
| AKAPSGLDQSRIPFSER [FAS1] | 2.12 |
| DASTPLRSTENGIVDQV [RPB2] | 3.34 |
| ISHDDLQAVAVAVSTKK [FAS2] | 1.19 |
| IADQDMEDEDMVDVIID [ESC2] | 3.15 |
| TDLRFQSSAIGALQESV [HHT1] | 1.32 |
| IKKFAKLHMGTEDVRLA [RPL31B] | 2.71 |
| KNDNGGKMNNEVSTSTS [SWI3] | 3.06 |
| EYFGGESPVDVQSQVDS [FAS1] | 3.19 |
| SKSAPSKKISNTAAALV [YAR002W/NUP60] | 3.12 |
| KGETNSEISIIDATLKE [RRP45] | 3.31 |
| VLSTFTAEFGKILAGLH [RPN10] | 3.1 |
| KSSWRQEWLANLKLISV [SIR4] | 1.64 |
| PQQAQQQPNPLHGLTPT [GAL11] | 2.83 |
| LNVVMKNLERLRGEYND [SMC4] | 3.37 |
| HKMGVERSSKRLAKKPS [SIR3] | 3.24 |
| PSKSQTNFKEEITDASL [YML103C/NUP188] | 3.02 |
| DIGKEMSLRHFGHLMHY [RPN1] | 1.23 |
| ANNNMNDELVELLANKC [GRR1] | 2.78 |
| TVKLTEIVWTSSLIKAG [RPO31] | 1.24 |
| GRLDRKIEFPLPSEDSR [RPT5] | 2.71 |
| WTEASSSGAGTVKLYLP [ECM29] | 2.09 |
| IAKIKKVCECVCMHCGK [RPO21] | 2.7 |
| SMINSVSPTNVMGTPLT [PGD1] | 2.73 |
| RRFYKNWYKSKKKAFTK [RPL3] | 1.6 |
| RLHYYPKDPSNVETYEQ [BRR2] | 3.01 |
| SIAEEIPIAIVLKACGI [RET1] | 1.31 |
| HGVLQGTSQNYGTATAD [MED1] | 2.96 |
| GEGSTVNASVDVDQHGN [SWI3] | 2.87 |
| DRSKPVALTSFLGYKAG [RPL3] | 3.08 |
| SLQDLIYKRGQAGVTKA [SMC2] | 1.85 |
| PRRYGKGSRQCRVCSSH [RPS29A] | 2.92 |
| ITHPGKMELVYVSDSDD [SIR4] | 3.31 |
| KIRRHPNIMLIFGSGFG [FAS1] | 1.68 |
| LWSGKQILSVAIPNGIH [RPO21] | 1.37 |
| PLKTELEANGRSLEKVN [SSN2] | 3.22 |
| NSADAAYAQVEIQPRAN [FAS2] | 2.21 |
| QGAKTYLERTLDTFIKI [PRE5] | 2.81 |
| SENEDTKDLLSKSPSEW [CSE2] | 3.15 |
| KVDNDLRIELQSVYNDE [SRB8] | 3.26 |
